Consider the following molecules; for each one, report its Ki.
TEST_SYSTEM: benzodiazepine receptor
EXPERIMENTAL_DETAILS: Binding Test to Benzodiazepine Receptor (inhibition of tritium labeled diazepam binding)
CONDITIONS_USED: 2nM tritium labeled diazepam; rat cerebral cortex; 0° C., 6 minutes; calculated from IC50
# number only, unit nM dropped from output

For benzodiazepine receptor, provide Ki of Cc1cc2c(ncc3nc(-c4cccs4)[nH]c32)s1 please. 31.8

Param readout= Ki; system= benzodiazepine receptor; entry= Clc1ccc(-c2nc3cnc4ccccc4c3[nH]2)s1 ; returns value. 0.97

Lab note: need Ki with benzodiazepine receptor for entry c1csc(-c2nc3cnc4ccsc4c3[nH]2)c1 , please look it up. 10.1

What Ki appears in the records for this molecule with benzodiazepine receptor? Fc1ccc2c(c1)ncc1nc(-c3ccon3)[nH]c12 0.495

GET /values?readout=Ki&system=benzodiazepine receptor&item= Cc1csc(-c2nc3cnc4ccccc4c3[nH]2)n1 4.57

Recorded Ki for Cc1cc(-c2nc3cnc4ccccc4c3[nH]2)on1 with benzodiazepine receptor, please? 0.582

Recorded Ki for Cc1cc(-c2nc3cnc4ccccc4c3[nH]2)ns1 with benzodiazepine receptor, please? 2.07

benzodiazepine receptor / Ki / Cc1cc(-c2nc3cnc4ccccc4c3[nH]2)sn1 : value? 1.19

Give benzodiazepine receptor Ki for Clc1ccc2c(c1)ncc1nc(-c3ccon3)[nH]c12 1.23

Missing value: Ki, benzodiazepine receptor, entry Cc1csc(-c2nc3cnc4cc(Cl)ccc4c3[nH]2)c1 . Fill in? 15.6

Recorded Ki for Cc1cc(-c2nc3cnc4cc(F)ccc4c3[nH]2)on1 with benzodiazepine receptor, please? 0.907

Short answer please: Ki, benzodiazepine receptor, entry Clc1ccc2c(c1)ncc1nc(-c3cccs3)[nH]c12 19.5

// map CCc1cc(-c2nc3cnc4ccccc4c3[nH]2)on1 to recorded Ki (system: benzodiazepine receptor) 0.97

// fetch benzodiazepine receptor Ki for c1ccc2c(c1)ncc1nc(-c3ccon3)[nH]c12 0.525

Quick check: Ki on benzodiazepine receptor, item Fc1ccc(-c2nc3cnc4ccccc4c3[nH]2)cc1 ? 15.8

For benzodiazepine receptor, provide Ki of COc1ccc(-c2nc3cnc4ccccc4c3[nH]2)cc1 please. 8.73

What is its Ki for benzodiazepine receptor? Entry: Fc1ccccc1-c1nc2cnc3ccccc3c2[nH]1 1.8

Give benzodiazepine receptor Ki for c1ccc2c(c1)ncc1nc(-c3cnns3)[nH]c12 5.4

Missing value: Ki, benzodiazepine receptor, entry Fc1cccc(-c2nc3cnc4ccccc4c3[nH]2)c1 . Fill in? 27.7

State its Ki on benzodiazepine receptor: c1csc(-c2nc3cnc4sccc4c3[nH]2)c1 725

Give benzodiazepine receptor Ki for Cc1cc(-c2nc3cnc4ccc(F)cc4c3[nH]2)on1 0.237

API: value(readout=Ki, system=benzodiazepine receptor) for record Cc1cc(-c2nc3cnc4ccccc4c3[nH]2)no1 0.661
